study target: FLT3 (Homo sapiens, UniProt P36888)
Construct: FLT3(DKIN); made in house
Sequence (P36888 610-943 limits assumed): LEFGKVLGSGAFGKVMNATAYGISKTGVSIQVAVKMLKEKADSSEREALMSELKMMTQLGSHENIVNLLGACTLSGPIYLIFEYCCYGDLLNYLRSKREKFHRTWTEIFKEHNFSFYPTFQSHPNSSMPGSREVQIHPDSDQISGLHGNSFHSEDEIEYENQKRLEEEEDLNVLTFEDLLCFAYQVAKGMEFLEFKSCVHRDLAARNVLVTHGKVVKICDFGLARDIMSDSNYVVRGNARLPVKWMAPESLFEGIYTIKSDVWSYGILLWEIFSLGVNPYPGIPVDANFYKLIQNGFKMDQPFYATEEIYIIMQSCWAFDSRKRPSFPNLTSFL
test summary: Binding constant (Kd) measurement, phage-displayed kinase competition binding assay
condition description: FLT3(DKIN) construct
experimental endpoint: Binding Assay: FLT3(DKIN)

Examples from the recorded data:
{"columns": ["compound", "reported value"],
 "data": [
  ["COc1ccc(NC(=O)Nc2cc(C(C)(C)C)on2)cc1", "+ + + +"],
  ["CC(C)(C)c1cc(NC(=O)Nc2ccc(OCc3ccc(C(F)(F)F)cc3)cc2)no1", "+ + + +"],
  ["CCOC(=O)NN(C(=O)Nc1cc(C(C)(C)C)on1)c1ccc(OC)cc1", "+ + +"],
  ["CC(Oc1ccc(NC(=O)Nc2cc(C(C)(C)C)on2)cc1)c1ccccc1 (centres unmarked)", "+ + + +"],
  ["Cc1ccc(NC(=O)Nc2cc(C(F)(F)F)cc(Cl)n2)cc1", "+ + + +"]
]}

# input If you can, please state the reported Binding Assay: FLT3(DKIN) value of CC(C)(C)c1cc(NC(=O)Nc2ccc(OCc3cccc(F)c3)cc2)no1 .
# output + + + +

# input If you can, please state the reported Binding Assay: FLT3(DKIN) value of Cn1nc(-c2ccccc2)c2cc(C(=O)Nc3ccc(NC(=O)Nc4cc(C(C)(C)C)on4)cc3)sc21 .
# output + + + +

# input If you can, please state the reported Binding Assay: FLT3(DKIN) value of CC(C)(C)c1cc(NC(=O)Nc2ccc(OCc3ccc(C(=O)c4ccccc4)cc3)cc2)no1 .
# output + + + +

----------
Tested on: MV4,11 cells
test summary: FLT3 assay using MV4,11 cells (cellular proliferation, MTS)
Assay type: cell-based, human
condition description: cell assay code CS0001
experimental endpoint: Cell Assay: CS0001:IC50

Examples from the recorded data:
{"columns": ["compound", "experimental endpoint", "reported value"],
 "data": [
  ["CC(C)(C)c1cc(NC(=O)Nc2ccc(NC(=O)c3cnc4ccccc4n3)cc2)no1 [Compound N149]", "Cell Assay: CS0001:IC50", "+ +"],
  ["Cc1nc(N)cc(Nc2ccc(NC(=O)Nc3cc(C(C)(C)C)on3)cc2)n1 [Compound O10]", "Cell Assay: CS0001:IC50", "+ + +"],
  ["CC(C)(C)c1cc(NC(=O)Nc2ccc(NC(=O)c3cc(Cl)nc(Cl)c3)cc2)no1 [Compound N132]", "Cell Assay: CS0001:IC50", "+ + +"],
  ["CCc1ccc(C(=O)Nc2ccc(NC(=O)Nc3cc(C(C)(C)C)on3)cc2)cc1 [Compound N32]", "Cell Assay: CS0001:IC50", "+ + +"],
  ["CCOC(=O)c1cccc(C(=O)Nc2ccc(NC(=O)Nc3cc(C(C)(C)C)on3)cc2)n1 [Compound N164]", "Cell Assay: CS0001:IC50", "+ + + +"]
]}

# input If you can, please state the reported Cell Assay: CS0001:IC50 value of CC(C)(C)c1cc(NC(=O)Nc2ccc(OCc3ccc(F)cc3Cl)cc2)no1 [Compound G18] .
# output + + +

# input If you can, please state the reported Cell Assay: CS0001:IC50 value of CC(C)(C)c1cc(NC(=O)Nc2ccc(OCc3ccc4nonc4c3)cc2)no1 [Compound G55] .
# output + + +

----------
study target: FLT3 (Homo sapiens, UniProt P36888)
Construct: FLT3(DKIN); made in house
test summary: Binding constant (Kd) measurement, phage-displayed kinase competition binding assay
condition description: FLT3(DKIN) construct
experimental endpoint: Binding Assay: FLT3(DKIN)

Examples from the recorded data:
{"columns": ["compound", "experimental endpoint", "reported value"],
 "data": [
  ["CC1CCCN(CCOc2ccc(NC(=O)Nc3cc(C(C)(C)C)on3)cc2)C1 (stereo not drawn) [Compound G44]", "Binding Assay: FLT3(DKIN)", "+ +"],
  ["CC(C)c1ccc(NC(=O)Nc2cc(C(C)(C)C)no2)cc1 [Compound A11]", "Binding Assay: FLT3(DKIN)", "+ +"],
  ["CC(C)(C)c1cc(NC(=O)Nc2ccc(NC(=O)c3nccc4ccccc34)cc2)no1 [Compound N117]", "Binding Assay: FLT3(DKIN)", "+ + + +"],
  ["CC(C)(C)c1cc(NC(=O)Nc2ccc(NC(=O)Cc3ccccc3)cc2)no1 [Compound N35]", "Binding Assay: FLT3(DKIN)", "+ + +"],
  ["O=C(Nc1ccc(Cl)cc1)Nc1ccc(-n2nc(Br)c(Br)c2Br)cc1 [Compound Z49]", "Binding Assay: FLT3(DKIN)", "+ + +"],
  ["C=CCOc1ccc(NC(=O)Nc2cc(C(C)(C)C)no2)cc1 [Compound G32]", "Binding Assay: FLT3(DKIN)", "+ + + +"]
]}

# input Item Cn1nc(C2CC2)cc1NC(=O)Nc1ccc(OCc2ccccc2)cc1 [Compound H7] with FLT3 (Homo sapiens, UniProt P36888) - Binding Assay: FLT3(DKIN)?
# output + +

# input Item Cc1ccc2sc(C(=O)Nc3ccc(NC(=O)Nc4cc(C(C)(C)C)on4)cc3)cc2c1 [Compound N133] with FLT3 (Homo sapiens, UniProt P36888) - Binding Assay: FLT3(DKIN)?
# output + + + +

# input Item CC(C)(C)c1csc(NC(=O)Nc2ccc(OCc3ccccc3)cc2)n1 [Compound G49] with FLT3 (Homo sapiens, UniProt P36888) - Binding Assay: FLT3(DKIN)?
# output + +

# input Item CC(C)(C)c1cc(NC(=O)Nc2ccc(OCc3ccccc3)cc2)no1 [Compound G31] with FLT3 (Homo sapiens, UniProt P36888) - Binding Assay: FLT3(DKIN)?
# output + + + +

# input Item CC(C)(C)c1cc(NC(=O)Nc2ccc(C(=O)NCc3ccccc3)cc2)no1 [Compound N89] with FLT3 (Homo sapiens, UniProt P36888) - Binding Assay: FLT3(DKIN)?
# output + + +

# input Item COc1cc(C(=O)Nc2ccc(NC(=O)Nc3cc(C(C)(C)C)on3)cc2)nc2ccccc12 [Compound N137] with FLT3 (Homo sapiens, UniProt P36888) - Binding Assay: FLT3(DKIN)?
# output + + + +

----------
Test system: MV4,11 cells
test summary: FLT3 assay using MV4,11 cells (cellular proliferation, MTS)
Type: cell-based, human
condition description: cell assay code CS0001
experimental endpoint: Cell Assay: CS0001:IC50

{"columns": ["compound", "reported value"],
 "data": [
  ["CC(C)(C)c1cc(NC(=O)Nc2ccc(NC(=O)c3csc(Cc4cccc(C(F)(F)F)c4)n3)cc2)no1 [Compound N180]", "+ + +"],
  ["Cc1nc(-c2ccc(C(=O)Nc3ccc(NC(=O)Nc4cc(C(C)(C)C)on4)cc3)s2)cs1 [Compound N173]", "+ + + +"],
  ["CC(C)(C)c1cc(NC(=O)Nc2ccc(OCc3c(F)cccc3F)cc2)no1 [Compound G21]", "+ + + +"],
  ["CC(C)(C)c1cc(NC(=O)Nc2ccc(NC(=O)c3cccc(Cl)n3)cc2)no1 [Compound N4]", "+ + + +"],
  ["CC(C)(C)c1cc(NC(=O)Nc2ccc(OCc3ccccc3)cc2)no1 [Compound G31]", "+ + + +"]
]}

# input If you can, please state the reported Cell Assay: CS0001:IC50 value of C=C/C(=C\C=C\Cl)NC(=O)Nc1ccc(C(=O)OCCOC)cc1 [Compound Z54] .
# output + +

# input If you can, please state the reported Cell Assay: CS0001:IC50 value of CC(C)(C)c1cc(NC(=O)Nc2ccc(NC(=O)Cc3noc4ccccc34)cc2)no1 [Compound N80] .
# output + + +
